# maps each entry to its Effect on cell growth (score)
System: MRC-5 cells
method notes: Effect of carnosine derivatives on cell growth / toxicity in MRC-5 cell cultures
Assay type: cell-based, human
condition summary: 1 mM; MRC-5 cells; scale 0 toxic to 10 confluent
Number only, no unit.

CCOC(=O)C(Cc1cnc[nH]1)NC(=O)CCNC(C)=O (centres unmarked) [N-acetyl carnosine ethyl ester]    5
CC(C)(C)C(=O)NCCC(=O)NC(Cc1cnc[nH]1)C(=O)O (centres unmarked) [N-trimethyl acetyl carnosine]    6
CC(=O)NCCC(=O)N[C@@H](Cc1cnc[nH]1)C(=O)O [N-acetyl carnosine]    8

Enquiry: Consider the molecule COC(=O)C(Cc1cnc[nH]1)NC(=O)CCNC(C)=O (centres unmarked) [N-acetyl carnosine methyl ester] and give its measured Effect on cell growth (score).
Return: 6

Enquiry: Would you kindly repeat that for CCCCCC(=O)NCCC(=O)N[C@@H](Cc1c[nH]cn1)C(=O)O [N-hexanoyl carnosine] ?
Return: 6
